Conditions: 303.15 K; Liquid; Closed cell (Static) method
property label: vapor or sublimation pressure (kPa)

Answered cases to consult:
> print(dat)
                                  compound                 property.label  endpoint.result
1                                O [water]  vapor or sublimation pressure            4.165
2  CN(C)CCO [2-(N,N-dimethylamino)ethanol]  vapor or sublimation pressure             1.11

I = CC(C)N(C)C [N,N-dimethylisopropylamine]
II = CCN1CCOCC1 [4-ethylmorpholine]
Quick one: lower vapor or sublimation pressure, I or II ? Return value: the label identifying the chosen record.
II

Numbers sourced from the NIST ThermoML archive (doi:10.1016/j.jct.2013.03.020).
